Experiment: chemical genetic growth profiling, strain panel (AID 1159580);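 note: tested at 20 µM; growth read once vehicle control cultures reached saturation at 30 °C; 1 = growth at the plate median or of vehicle wells; lower values mean less growth of the strain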
Details: S. cerevisiae deletion strains, growth OD, locus YLR221C, strain rsa3
Hit rate of the full screen: of about 5,500 compounds, about 2,000 (36%) were called active. Not shown: some 18% with an inconclusive outcome. Cut-off read from the data, not from the text of the source: active = normalized growth mostly below about 0.91 (no sharp cut-off); inconclusive = no clear call, values can overlap the other calls; inactive = mostly above about 0.92. The list shows a part of the results.
Possible outcomes: 1 (yes) (active), 0 (no) (inactive)

{"columns": ["Molecule", "Class Assignment"],
 "data": [
  ["C[N+]1(C)C[C@H](O)[C@H](C(=O)[O-])C1", "0 (no)"],
  ["Cc1c(OCC(F)(F)F)ccnc1CS(=O)c1nc2ccccc2[nH]1 (stereo unspecified)", "0 (no)"],
  ["CC[C@@]1(O)C(=O)OCc2c1cc1n(c2=O)Cc2cc3ccccc3nc2-1", "1 (yes)"],
  ["CC1Cc2ccccc2N1NC(=O)c1ccc(Cl)c(S(N)(=O)=O)c1 (stereo unspecified)", "0 (no)"],
  ["O=C(O)C1=CC(=C(c2ccc(O)c(C(=O)O)c2)c2ccc(O)c(C(=O)O)c2)C=CC1=O", "0 (no)"],
  ["Cc1ccccc1N1C(=O)c2cc(S(N)(=O)=O)c(Cl)cc2NC1C (stereo unspecified)", "0 (no)"],
  ["C=CCSSCC=C", "0 (no)"],
  ["COP(N)(=O)SC (stereo unspecified)", "0 (no)"],
  ["COc1ccc(-c2cc(=O)c3c(O)cc(O)c(-c4cc(-c5cc(=O)c6c(O)cc(O)cc6o5)ccc4OC)c3o2)cc1", "0 (no)"],
  ["COC(=O)CC1C(C)(C)C(OC(C)=O)[C@@H]2[C@@H](OC(C)=O)[C@]34O[C@@]2(O)[C@]1(C)C3CC[C@]1(C)C4=CC(=O)O[C@H]1c1ccoc1 (stereo partly specified)", "0 (no)"],
  ["C=CCSSSCC=C", "0 (no)"]
]}
